System: chorioallantoic membrane (CAM)
procedureSummary: Chorioallantoic membrane (CAM) assay, VEGF-derived angiogenesis
Format: in vivo, chick
cond: Gallus gallus, 72 h; VEGF (50 ng/CAM) + 3.0 ng/CAM, 1.0 μM; 3 days after treatment; read-out: Inhibition ratio
// reported inhibition in vivo at 1 µM for each item listed

| compound | experimentalTarget | endpointUnit | inhibition in vivo at 1 µM |
| --- | --- | --- | --- |
| Br.Cc1nc(Nc2ccccc2)c(C)c(C)c1O [Compound 6g-HBr, hydrobromide] | chorioallantoic membrane (CAM) | % | 55 |
| Cc1nc(Nc2ccc([N+](=O)[O-])cc2)c(C)c(C)c1O [Compound 6i] | chorioallantoic membrane (CAM) | % | 74.9 |
| Cc1nc(Nc2ccc(Br)cc2)c(C)c(C)c1O [Compound 6j] | chorioallantoic membrane (CAM) | % | 61.7 |
| Cc1nc(N(c2ccccc2)c2ccccc2)c(C)c(C)c1O [Compound 6l] | chorioallantoic membrane (CAM) | % | 65.4 |
